The reader will find reported koff values listed item by item below.
- target: T1, CTNI quality control recombinant protein (PK2-CTNI-1, 170120, produced by the applicant) (human, UniProt P19429 2-210, limits assumed)
- T1 construct: also called cardiac troponin I
- T1 sequence (P19429 2-210 limits assumed): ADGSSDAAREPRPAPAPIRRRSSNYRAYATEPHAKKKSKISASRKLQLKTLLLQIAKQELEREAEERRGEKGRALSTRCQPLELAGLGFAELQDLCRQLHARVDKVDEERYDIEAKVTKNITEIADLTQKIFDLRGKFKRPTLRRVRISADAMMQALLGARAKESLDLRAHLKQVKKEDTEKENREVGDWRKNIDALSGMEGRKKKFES
- assay comment: AMC sensor kinetics, antibody captured, cTnI analyte
- Description: Using the AMC sensor, the purified antibody was diluted with PBST to 10 μg/ml, and the CTNI quality control recombinant protein (PK2-CTNI-1, 170120, produced by the applicant) was serially diluted with PBST to 400 nmol/ml, 200 nmol/ml, 100 nmol/ml, 50 nmol/ml, 25 nmol/ml, 12.5 nmol/ml, 6.25 nmol/ml, and 0 nmol/ml.
// units = s⁻¹; emit number, no label

Completed entries (count: 2):
{"binder": "Mutation 1-14 (antibody, V domains shown, built as for Mutation 1) VH: EVQLQQSGAELVKPGASVKLSCTASGFNIKDYFMHWMKQRTEQGLDWIGRIDPEDAETKYAPEFQGKATITADTSSNTAYLQLSTLTSEDTAVYYCARYYSSYIPFVYWGQGTLVTASA VL: DVVMTQTPLSLSVSLGDQASISCRSSQSLLYSNRHTYLHWYLQKPGQSPKLLIFQISNRFSGVPDRFSGSGSGTDFTLKINRVEAEDLGVYFCSQSTHIPFTFGSGTKLEIKR", "unit abbrev": "s⁻¹", "koff": 0.000279}
{"binder": "Mutation 1-29 (antibody, V domains shown, built as for Mutation 1) VH: EVQLQQSGAELVKPGASVKLSCTASGFNLKDYYMHWMKQRTEQGLDWIGRIDPEDGETKYAPEFQGKATITADTSSNTAYLQLSTLTSEDTAVYYCARYYSSYVPFVYWGQGTLVTASA VL: DVVMTQTPLSLSVSLGDQASISCRSSQSLLYSNRHTYLHWYLQKPGQSPKLLIFQVSNRFSGVPDRFSGSGSGTDFTLKINRVEAEDLGVYFCSQSTHLPYTFGSGTKLEIKR", "unit abbrev": "s⁻¹", "koff": 0.000115}

Pending binder:
// Input: Mutation 1-9 (antibody, V domains shown, built as for Mutation 1) VH: EVQLQQSGAELVKPGASVKLSCTASGFNLKDYYMHWMKQRTEQGLDWIGRIDPEDGETKYAPEFQGKATITADTSSNTAYLQLSTLTSEDTAVYYCARYYSSYIPFVYWGQGTLVTASA VL: DVVMTQTPLSLSVSLGDQASISCRSSQSLLYSNRHTYLHWYLQKPGQSPKLLIFQISNRFSGVPDRFSGSGSGTDFTLKINRVEAEDLGVYFCSQSTHIPYTFGSGTKLEIKR . Output its koff only.
9.18e-05
